Each entry below carries its reported EC50.
- target or test system: T1, human IL4Rα expressed on 293F-IL4Rα cells (human, UniProt P24394 26-825)
- T1 construct: whole, on cells; also called cell surface human IL4Rα
- assay details: flow cytometry, 293F-IL4Rα cells
Hi! Could you send only the number? It should be in pM, unit omitted.

[[record]]
binder = "mouse antibody B9D1D11F8D8 (antibody, V domains shown, Mouse hybridoma mAb) VH: EVKLVESGGGLVKPGGSLKLSCAASGFTFSSYAMSWVRQTPEKRLEWVASISSGDSTYYLDSVKGRFTISRDNARNILYLQVSSLRSEDTAMYYCERSGGSAPYWGQGTLVTVSA VL: QIVLTQSPAIMSASPGDMVTISCSASSSVNYMYWYQQKPGSSPKPWIYRTSNLASGVPARFSGSGSGTSYSLTISSMEAEDAATYYCQQYHSFPLTFGAGTKLELK"
measured_property = "EC50"
assay_result = 220


Recorded EC50 for mouse antibody C2C1A1A1 (antibody, V domains shown, Mouse hybridoma mAb; also called Mouse C2C1A1A1) VH: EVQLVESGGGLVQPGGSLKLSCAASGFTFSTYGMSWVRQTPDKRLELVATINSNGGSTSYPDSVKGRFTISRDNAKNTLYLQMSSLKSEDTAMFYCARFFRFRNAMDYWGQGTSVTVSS VL: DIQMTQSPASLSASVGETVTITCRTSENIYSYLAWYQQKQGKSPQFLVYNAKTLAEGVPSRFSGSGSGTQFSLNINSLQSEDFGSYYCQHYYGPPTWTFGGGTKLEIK , please?
160
